# Assay Target: interaction between p53 and MDM2 proteins (Homo sapiens, UniProt Q00987)
# Sequence (Q00987 whole entry): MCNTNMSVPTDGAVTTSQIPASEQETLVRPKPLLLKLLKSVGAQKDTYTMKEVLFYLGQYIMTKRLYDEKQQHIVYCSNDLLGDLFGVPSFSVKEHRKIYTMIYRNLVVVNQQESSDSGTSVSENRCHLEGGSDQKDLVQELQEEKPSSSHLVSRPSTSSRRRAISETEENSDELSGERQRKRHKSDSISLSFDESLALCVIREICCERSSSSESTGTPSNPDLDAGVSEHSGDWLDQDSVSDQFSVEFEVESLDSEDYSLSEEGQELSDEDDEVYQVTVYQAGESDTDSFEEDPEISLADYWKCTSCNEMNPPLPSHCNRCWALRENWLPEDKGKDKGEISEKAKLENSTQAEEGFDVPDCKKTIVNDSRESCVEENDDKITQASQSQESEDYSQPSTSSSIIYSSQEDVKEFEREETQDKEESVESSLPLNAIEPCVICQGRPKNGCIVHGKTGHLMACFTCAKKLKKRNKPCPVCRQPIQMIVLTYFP
# Assay Protocol: HTRF assay of inhibition of the interaction between p53 and MDM2 proteins (GST-MDM2 / biotinylated p53 peptide)
# Experimental Setup: recombinant GST-tagged MDM2, biotinylated p53 peptide, 37° C. for 1 h
Measurement Name: IC50 (nM)
Answers are plain numbers, in nM.

// worked examples, IC50 included
{"columns": ["Compound", "IC50 [nM]"],
 "data": [
  ["COc1cccc([C@]2(Cc3cccc(Cl)c3)C(=O)Nc3cc(Cl)ccc32)c1 (single isomer, unassigned)", 280],
  ["COc1cccc(C2(Cc3ccccc3)C(=O)Nc3cc(Cl)ccc32)c1 (racemic)", 9490],
  ["O=C1Nc2cc(Cl)ccc2C1(Cc1ccccc1)C1CCCC1 (racemic)", 5380]
]}

# query: IC50 | item COc1cccc(C2(Cc3cccc(Cl)c3)C(=O)Nc3cc(Cl)ccc32)c1 (racemic) | system: interaction between p53 and MDM2 proteins (Homo sapiens, UniProt Q00987)
460
